Test system: MCF7
Assay: In vitro inhibition of MCF-7 cell proliferation compared to 0.1 nM [3H]-estradiol.
Type: functional, cell-based
Details: Homo sapiens
Answer each item with its documented log10(IC50).
For clarity, the numbers are log10 values of IC50 expressed in nM.

Task: Annotate the compound `Cc1ccc(/C(=C(\C#N)c2ccc(O)cc2)c2ccc(O)cc2)cc1` with its measured log10(IC50).
Result: 1.43

Task: Annotate the compound `CC/C(=C(/c1ccc(O)cc1)c1ccc(OCCN(C)C)cc1)c1ccccc1` with its measured log10(IC50).
Result: 1.34

Task: Annotate the compound `CCN(CC)CCOc1ccc(/C(=C(/C#N)c2ccccc2)c2ccc(O)cc2)cc1` with its measured log10(IC50).
Result: 0.66

Task: Annotate the compound `Cc1ccc(C(C#N)=C(c2ccc(O)cc2)c2ccc(O)cc2)cc1` with its measured log10(IC50).
Result: 0.68

Task: Annotate the compound `N#CC(=C(c1ccc(O)cc1)c1ccc(O)cc1)c1ccccc1` with its measured log10(IC50).
Result: 0.54

Task: Annotate the compound `CC(C)Oc1ccc(/C(=C(\C#N)c2ccccc2)c2ccc(O)cc2)cc1` with its measured log10(IC50).
Result: 2.25

Task: Annotate the compound `Cc1ccc(/C(=C(/C#N)c2ccccc2)c2ccc(O)cc2)cc1` with its measured log10(IC50).
Result: 1.23

Task: Annotate the compound `COc1ccc(/C(=C(/C#N)c2ccccc2)c2ccc(O)cc2)cc1` with its measured log10(IC50).
Result: 1.53

Task: Annotate the compound `CCN(CC)CCOc1ccc(/C(=C(\C#N)c2ccccc2)c2ccc(O)cc2)cc1` with its measured log10(IC50).
Result: 1.40

Task: Annotate the compound CC/C(=C(\c1ccccc1)c1ccc(OCCN(C)C)cc1)c1ccccc1 [TAMOXIFEN] with its measured log10(IC50).
Result: 2.34

Task: Annotate the compound `COc1ccc(/C(=C(\C#N)c2ccccc2)c2ccc(O)cc2)cc1` with its measured log10(IC50).
Result: 2.17

Task: Annotate the compound `Cc1ccc(/C(=C(\C#N)c2ccccc2)c2ccc(O)cc2)cc1` with its measured log10(IC50).
Result: 1.72

Task: Annotate the compound `Cc1ccc(/C(=C(/C#N)c2ccc(O)cc2)c2ccc(O)cc2)cc1` with its measured log10(IC50).
Result: 1.51

Task: Annotate the compound `CC(C)Oc1ccc(/C(=C(/C#N)c2ccccc2)c2ccc(O)cc2)cc1` with its measured log10(IC50).
Result: 1.53

Task: Annotate the compound `CCC(=C(c1ccc(O)cc1)c1ccc(OCCN(C)C)cc1)c1ccccc1` with its measured log10(IC50).
Result: 0.40

Task: Annotate the compound `N#CC(=C(c1ccc(O)cc1)c1ccc(O)cc1)c1ccc(O)cc1` with its measured log10(IC50).
Result: 0.98
